Please respond with reported cell viability for every item in the list.
- Tested on: Caco-2
- assay-notes: cell viability relative to DMSO; higher = less toxic
- settings: 72 h; 100 nM
Numbers only, in %.

O=C(O)Cn1c2c(c3cc(F)ccc31)CN(C(=O)c1cccc3ccccc13)CC2: 103
CC(C)SC(=N)N: 96.7
COc1cc2c(cc1OC)[C@@]13CCN4CC5=CCO[C@H]6CC(=O)N2[C@H]1[C@H]6[C@H]5C[C@H]43: 112
CCNCCS(=O)(=O)NC[C@@]1(c2ccccc2)SC(NC(=O)C(C)(C)C)=NN1C(=O)C(C)(C)C: 62.9
COc1cc2ncnc(Oc3cccc(NC(=O)Nc4cc(C(C)(C)C(F)(F)F)on4)c3)c2cc1OC: 97.5
Cc1cnc(Nc2ccc(OCCN3CCCC3)cc2)nc1Nc1cccc(S(=O)(=O)NC(C)(C)C)c1: 99.3
CN(C)C(=N)NCCC[C@H](N)C(=O)O: 97.9
CN[C@H](CC(C)C)C(=O)N[C@H]1C(=O)N[C@@H](CC(N)=O)C(=O)N[C@H]2C(=O)N[C@H]3C(=O)N[C@H](C(=O)N[C@H](C(=O)O)c4cc(O)cc(O)c4-c4cc3ccc4O)[C@H](O[C@H]3C[C@](C)(N)[C@@H](O)[C@H](C)O3)c3ccc(c(Cl)c3)Oc3cc2cc(c3O[C@@H]2O[C@H](CO)[C@@H](O)[C@H](O)[C@H]2O[C@H]2C[C@](C)(NCc3ccc(-c4ccc(Cl)cc4)cc3)[C@@H](O)[C@H](C)O2)Oc2ccc(cc2Cl)[C@H]1O: 98
CC(C)Nc1nc2cc(Cl)c(Cl)cc2n1[C@H]1O[C@@H](CO)[C@H](O)[C@@H]1O: 97.3
Cc1cn(-c2cc(NC(=O)c3ccc(C)c(Nc4nccc(-c5cccnc5)n4)c3)cc(C(F)(F)F)c2)cn1: 97.9

For every item below, please supply its cell viability.
1. CS(=O)(=O)OC[C@H](O)[C@@H](O)COS(C)(=O)=O
2. CN1C(=O)c2c(nn(Cc3ccc(-c4cccc(F)n4)cc3)c2Nc2ccccc2)N2C1=N[C@@H]1CCC[C@@H]12
3. CCOC(=O)N1CSC[C@H]1C(=O)O
4. O=C(N/N=C/c1ccc(O)c(O)c1)c1cc2ccccc2cc1O
5. O=C(/C=C/c1ccc2ccc(C(F)(F)F)cc2n1)c1ccncc1
6. C=C1CCN([C@H](C)[C@](O)(Cn2cncn2)c2ccc(F)cc2F)CC1
7. Cc1ccc(S(N)(=O)=O)cc1 [para-toluenesulfonamide]
8. CCNC1(C(N)=O)CCN(c2ncnc3c2nc(-c2ccccc2Cl)n3-c2ccc(Cl)cc2)CC1

1. 102
2. 97.4
3. 100
4. 101
5. 102
6. 100
7. 98.1
8. 88.3

I have 4 compounds here; please give me cell viability for each one.
1. O=C1NC(=O)C(c2ccccc2[N+](=O)[O-])=C1Nc1ccc(O)c(Cl)c1
2. CC(=O)OCC(=O)[C@@]1(O)CC[C@H]2[C@@H]3CCC4=CC(=O)C=C[C@]4(C)[C@H]3[C@@H](O)C[C@@]21C [prednisolone-acetate]
3. CCN1CCC(n2cc(CNc3cc(Cl)c4ncc(C#N)c(Nc5ccc(F)c(Cl)c5)c4c3)nn2)CC1
4. Cc1cccc(/C=C/c2ccccc2)n1

1. 104
2. 93.3
3. 93.3
4. 90.7
